- System: MDA-MB-468 complex spheroids with HUVEC/MSC, viability
- assayOverview: Anticancer human tumor MDA-MB-468 cell line growth inhibition;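 also: spheroids exposed to agents for seven days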
- conditionsUsed: curve of first compound; second compound 3.16 µM
measuredQuantity: IC50 (nM)
Please give a number only; it is taken to be in nM.

Sample answers from the record:
molecule: Nc1ncn(C2CC(O)C(CO)S2)c(=O)n1 (stereo unspecified) + NC1CC1c1ccc(-c2cccc(O)c2)cc1
IC50 / nM: 10.7
//
molecule: Nc1ccccc1NC(=O)c1ccc(CNC(=O)OCc2cccnc2)cc1 + NC1CCC(NC2CC2c2ccccc2)CC1
IC50 / nM: 143
//
molecule: CCN(c1cc(-c2ccc(CN3CCOCC3)cc2)cc(C(=O)NCc2c(C)cc(C)[nH]c2=O)c1C)C1CCOCC1 + NC1CC1c1ccc(-c2cccc(O)c2)cc1
IC50 / nM: 171
//
molecule: CC[C@@]1(O)C(=O)OCc2c1cc1n(c2=O)Cc2cc3c(CN(C)C)c(O)ccc3nc2-1 + NC1CCC(NC2CC2c2ccccc2)CC1
IC50 / nM: 0.62
//
molecule: Nc1ncn(C2CC(O)C(CO)O2)c(=O)n1 (stereo unspecified) + NC1CC1c1ccc(-c2cccc(O)c2)cc1
IC50 / nM: 15
//
molecule: CC1COCCN1c1cc(C2(S(C)(=N)=O)CC2)nc(-c2ccnc3[nH]ccc23)n1 (stereo unspecified) + NC1CCC(NC2CC2c2ccccc2)CC1
IC50 / nM: 394

IC50 for O=C(c1cc(Cc2n[nH]c(=O)c3ccccc23)ccc1F)N1CCN(C(=O)C2CC2)CC1 + NC1CC1c1ccc(-c2cccc(O)c2)cc1 ?
677

Further, for COc1cc(C2c3cc4c(cc3C(OC3OC5COC(C)OC5C(O)C3O)C3COC(=O)C23)OCO4)cc(OC)c1O (stereo unspecified) + NC1CC1c1ccc(-c2cccc(O)c2)cc1 ?
47.2

---

- Test system: MDA-MB-468 complex spheroids with HUVEC/MSC, viability
- assayOverview: Anticancer human tumor MDA-MB-468 cell line growth inhibition;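 also: spheroids exposed to agents for seven days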
- conditionsUsed: curve of first compound; second compound 3.16 µM
measuredQuantity: pIC50
# pIC50: negative log10 of molar concentration; output just the value

molecule: NS(=O)(=O)OCC1CC(n2ccc3c(NC4CCc5ccccc54)ncnc32)CC1O (stereo not drawn) + NC1CCC(NC2CC2c2ccccc2)CC1
testResult: 7.69

molecule: Nc1ccccc1NC(=O)c1ccc(CNC(=O)OCc2cccnc2)cc1 + NC1CC1c1ccc(-c2cccc(O)c2)cc1
testResult: 7.22

molecule: Nc1ncn(C2CC(O)C(CO)O2)c(=O)n1 (stereo not drawn) + NC1CCC(NC2CC2c2ccccc2)CC1
testResult: 7.94

molecule: CC1COCCN1c1cc(C2(S(C)(=N)=O)CC2)nc(-c2ccnc3[nH]ccc23)n1 (stereo not drawn) + NC1CC1c1ccc(-c2cccc(O)c2)cc1
testResult: 6.22

pIC50 for Nc1ncn(C2CC(O)C(CO)S2)c(=O)n1 (stereo not drawn) + NC1CCC(NC2CC2c2ccccc2)CC1 ?
7.18

Further, for O=C(C=Cc1cccc(S(=O)(=O)Nc2ccccc2)c1)NO + NC1CCC(NC2CC2c2ccccc2)CC1 ?
7.21

---

- Tested on: MDA-MB-468 complex spheroids with HUVEC/MSC, viability
- assayOverview: Anticancer human tumor MDA-MB-468 cell line growth inhibition;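 also: spheroids exposed to agents for seven days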
- conditionsUsed: curve of first compound; second compound 3.16 µM
pIC50: −log10 of the molar value.
measuredQuantity: pIC50

compound: Nc1ccn(C2OC(CO)C(O)C2(F)F)c(=O)n1 (configuration not stated) + NC1CCC(NC2CC2c2ccccc2)CC1
testResult: > 9.02

compound: CCc1c2c(nc3ccc(O)cc13)-c1cc3c(c(=O)n1C2)COC(=O)[C@]3(O)CC + NC1CCC(NC2CC2c2ccccc2)CC1
testResult: > 9.02

compound: CC1COCCN1c1cc(-c2ccnn2C)c2ccnc(-c3ccn[nH]3)c2n1 (configuration not stated) + NC1CC1c1ccc(-c2cccc(O)c2)cc1
testResult: > 8.50

compound: CC(C)c1c(-c2ccccc2)nc2c(C#N)c[nH]n2c1=O + NC1CC1c1ccc(-c2cccc(O)c2)cc1
testResult: < 5.00

compound: Cn1ncnc1C1c2n[nH]c(=O)c3cc(F)cc(c23)NC1c1ccc(F)cc1 (configuration not stated) + NC1CCC(NC2CC2c2ccccc2)CC1
testResult: < 7.00

compound: CCc1c2c(nc3ccc(O)cc13)-c1cc3c(c(=O)n1C2)COC(=O)[C@]3(O)CC + NC1CC1c1ccc(-c2cccc(O)c2)cc1
testResult: > 9.02

// moving on: another record for pIC50
pIC50 for Nc1ccn(C2OC(CO)C(O)C2(F)F)c(=O)n1 (configuration not stated) + NC1CC1c1ccc(-c2cccc(O)c2)cc1 ?
> 9.02

Numbers sourced from PubChem BioAssay AID1918954.
